- method: blockers of HIV-1 ZM109 envelope-driven cell-cell fusion – HeLa effector, CEM target cells, luciferase, cherry-pick, dose response (AID 652058);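 also: luciferase signal from HIV-1 Env mediated cell-cell fusion of effector and target cells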
- Format: functional, cell-based
The source made the active and inactive calls.
Quick reference for AC50 among some molecules

Worked examples, 3 molecules total:
1. COc1ccc(Cl)cc1NC(=O)CN(C)C(=O)CCCc1c[nH]c2ccccc12: 5.13 µM (active)
2. CC1CCC(C(C)C)C(OC(=O)Cn2c(COc3ccccc3)[n+](C)c3ccccc32)C1 (centres undefined): 6.35 µM (active)
3. CC(OC(=O)c1ccc(NC(=O)CC#N)cc1)C(=O)NCCC1=CCCCC1 (centres undefined): 0.439 µM (active)

# next molecule below
I'd like to know its AC50. The molecule in question is CC1(Cc2ccc(Cl)cc2)C(=O)Nc2ccc(-c3cccnc3)cc21 (centres undefined)
4.18 µM (active)

* * *

- targetUnderTest: Corticotropin-releasing factor receptor 2/Corticotropin-releasing factor-binding protein (Homo sapiens, UniProt P24387+Q13324)
- Sequence (Q13324 whole entry): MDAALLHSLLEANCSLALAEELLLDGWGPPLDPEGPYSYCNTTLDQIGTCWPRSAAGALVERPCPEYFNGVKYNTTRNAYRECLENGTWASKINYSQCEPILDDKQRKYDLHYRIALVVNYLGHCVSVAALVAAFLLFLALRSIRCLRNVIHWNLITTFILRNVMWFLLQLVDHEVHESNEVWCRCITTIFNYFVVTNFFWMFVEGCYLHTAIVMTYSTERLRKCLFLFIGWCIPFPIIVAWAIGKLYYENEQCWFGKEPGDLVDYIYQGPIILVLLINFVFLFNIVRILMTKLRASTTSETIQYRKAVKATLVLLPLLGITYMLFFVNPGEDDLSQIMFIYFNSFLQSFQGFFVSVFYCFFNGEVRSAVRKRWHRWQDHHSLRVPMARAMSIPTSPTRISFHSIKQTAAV
- Sequence (P24387 whole entry): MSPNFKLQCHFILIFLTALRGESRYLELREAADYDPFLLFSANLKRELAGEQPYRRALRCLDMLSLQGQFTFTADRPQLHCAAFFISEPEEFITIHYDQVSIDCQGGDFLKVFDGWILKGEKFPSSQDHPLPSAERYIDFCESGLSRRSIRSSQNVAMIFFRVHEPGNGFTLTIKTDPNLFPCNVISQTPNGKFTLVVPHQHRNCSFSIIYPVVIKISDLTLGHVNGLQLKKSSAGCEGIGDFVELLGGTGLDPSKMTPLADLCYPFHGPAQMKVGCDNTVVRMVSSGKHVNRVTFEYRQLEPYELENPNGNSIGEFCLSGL
- method: activators of CRF receptor 2 with binding protein – uHTS hits, confirmation (AID 602473)
- Format: functional
- measurementSetup: read-out: EC50_Mean
Calls of active or inactive are those of the source.
Bench note: report the call from class 1 = active, class 0 = inactive

Use these answered entries as a reference point.
1. CC12CCC(C/C1=N\OC(=O)c1c(F)cccc1F)C2(C)C (stereo unspecified): class 0
2. CC1(C2CC2)NC(=O)N(CC(=O)Nc2ccccc2F)C1=O (stereo unspecified): class 0
3. COCCn1cnc2c(c1=O)c1nc3ccccc3nc1n2/N=C/c1cccc(OC)c1: class 0
4. CC(C)N1CCc2c(sc(NC(=O)c3ccc(S(=O)(=O)N4CCOCC4)cc3)c2C#N)C1: class 1
5. CC(C)NC(=S)N(CCc1ccncc1)C(C)C: class 0

Hi, sorry to bother you, what did the test record for O=C(Nc1ccccc1)c1ccccc1OCc1cccc([N+](=O)[O-])c1 ?
class 0

Hi, sorry to bother you, what did the test record for COc1ccc(NC(=O)CN(C)C(=O)C2=COCCO2)cc1 ?
class 0

Hi, sorry to bother you, what did the test record for CCCCN(C(=O)CSc1nnc[nH]1)c1c(N)n(Cc2ccccc2)c(=O)[nH]c1=O ?
class 0

Hi, sorry to bother you, what did the test record for Cc1nn(-c2ccccc2)c(N)c1Sc1ccc([N+](=O)[O-])cc1 ?
class 0

Hi, sorry to bother you, what did the test record for COc1ccc(S(=O)(=O)Nc2c(C)n(C)n(-c3ccccc3)c2=O)cc1C(=O)O ?
class 0

Hi, sorry to bother you, what did the test record for Cc1cc(C(=O)Nc2ccc3c(c2)OCCO3)nn1C(C)(C)C ?
class 0

* * *

- method: Luminescence Cell-Based Dose Retest to Confirm Inhibitors of Cancer Stem Cells. [Related pubchem assays (depositor defined):AID2717, AID2721]
- Type: functional
- measurementSetup: Homo sapiens
Activity calls are given as the source filed them.
readoutType: AC50

Worked examples, 6 molecules total:
1) O=C(N/N=C/c1cc(Cl)ccc1O)C(=O)Nc1ccccc1OC(F)(F)C(F)F: 2350 nM (active)
2) CCCCCC(=O)Nc1nc(C)c(-c2csc(Nc3cc(OC)ccc3OC)n2)s1: 1290 nM (active)
3) Cc1ccc(CCC(=O)Nc2ncc(Cc3cc(Cl)ccc3Cl)s2)o1: 251 nM (active)
4) CN1CCN(c2ccc(NC(=O)c3ccc(Cl)cc3)cn2)CC1: 19800 nM (active)
5) CCCCCc1cc(=O)oc2c(C(CCN3CCCC(C)C3)c3ccc(OC)cc3)c(OC)cc(OC)c12 (stereo not drawn): 3250 nM (active)
6) COc1cc(-c2nc(-c3ccc(NC(=O)c4ccc(Br)o4)cc3)no2)cc(OC)c1OC: 725 nM (active)

I'd like to know its AC50. The molecule in question is Nc1nn2c(O)cc(-c3ccccc3)nc2c1N=Nc1ccccc1
1620 nM (active)

I'd like to know its AC50. The molecule in question is O=C(/C=C/c1ccc(Cl)c([N+](=O)[O-])c1)c1ccc(O)cc1
4360 nM (active)
